Taken from PubChem BioAssay (NCI).

Assay Summary: NCI Yeast Anticancer Drug Screen. Data for the cln2 rad14 strain (AID 165)
Condition Description: S. cerevisiae cln2 rad14 strain, at 50.0 µM
Method: Growth inhibition of yeast strains with defined genetic alterations is measured as a screen for potential anti-cancer activity. Selected strains with alterations in DNA damage repair or cell cycle control were exposed to compounds and growth inhibition was measured relative to vehicle treated controls. The strain used in this assay is cln2 rad14
The panel holds about 79,000 compounds, 15% with a hit somewhere; the sample as a whole holds those more often. Active and inactive are the calls of the source. Cut-off read from the data, not from the text of the source: active = growth inhibition above about 70%; inactive = the rest.
Please answer using one outcome listed in active, inactive

q: Hello, I am checking results. What call was entered for O=C(COc1ccc(Cl)cc1Cl)NO ?
a: inactive

q: Hello, I am checking results. What call was entered for COc1ccc(NP(=S)(Nc2ccc(OC)cc2)c2ccccc2)cc1 ?
a: inactive

q: Hello, I am checking results. What call was entered for CCOP(=O)(CC(C)P(=O)(OCC)OCC)OCC.C[CH2][Sn]([Cl])([Cl])[CH2]C (stereo unspecified) ?
a: inactive

q: Hello, I am checking results. What call was entered for CNC(=O)OCC1C2=C(C(=O)C(C)=C(N)C2=O)N2CC3C(N3C)C12OC (stereo unspecified) ?
a: inactive

q: Hello, I am checking results. What call was entered for Nc1nc(N)c(-c2ccc(Cl)c(Cl)c2)c(CCc2ccc(CNC(=O)c3ccc(S(=O)(=O)F)cc3)cc2)n1 ?
a: active

q: Hello, I am checking results. What call was entered for O=C(CBr)Nc1ccccc1Cl ?
a: active

q: Hello, I am checking results. What call was entered for CCc1ccc2c(c1)N(CCCN(CCCl)CCCl)c1ccccc1S2 ?
a: active

q: Hello, I am checking results. What call was entered for Oc1ccc(Br)cc1C1N(Cc2ccc(N(CCCl)CCCl)cc2Cl)CCCN1Cc1ccc(N(CCCl)CCCl)cc1Cl ?
a: inactive

q: Hello, I am checking results. What call was entered for [O-][n+]1c2cccc(O)c2[n+]([O-])c2cccc(O)c21 ?
a: active

q: Hello, I am checking results. What call was entered for O=[N+]([O-])c1ccc(O)c(CCl)c1 ?
a: inactive

q: Hello, I am checking results. What call was entered for CCOP(=O)(Cc1cccc2ccccc12)OCC ?
a: inactive

q: Hello, I am checking results. What call was entered for [I][Hg][I].c1ccc(N=P(c2ccccc2)(c2ccccc2)c2ccccc2)cc1 ?
a: active

q: Hello, I am checking results. What call was entered for Fc1ccc(NP(=S)(Nc2ccc(F)cc2F)Nc2ccc(F)cc2F)c(F)c1 ?
a: active

q: Hello, I am checking results. What call was entered for Cc1ccc(NP(=O)(Oc2ccccc2)N(CCCl)CCCl)cc1 (stereo unspecified) ?
a: inactive

q: Hello, I am checking results. What call was entered for CC(=O)NC1C(S[As](C)C)OC(COC(C)=O)C(OC(C)=O)C1OC(C)=O (stereo unspecified) ?
a: active

q: Hello, I am checking results. What call was entered for CCOC(=O)NC(=S)[S][Sb]([S]C(=S)NC(=O)OCC)[S]c1nc2ccc(N=Nc3ccc(NS(=O)(=O)c4ccc(NC(=O)C(N5CC5)(N5CC5)N5CC5)cc4)cc3)cc2s1 ?
a: active

q: Hello, I am checking results. What call was entered for COc1cc(C(c2c(O)c3ccccc3oc2=O)c2c(O)c3ccccc3oc2=O)cc(OC)c1O ?
a: active

q: Hello, I am checking results. What call was entered for O=C(Nc1cc(Cl)ccc1Cl)C(Cl)(Cl)Cl ?
a: inactive

q: Hello, I am checking results. What call was entered for Nc1nc(N)c(-c2ccc(Cl)c(Cl)c2)c(CCc2ccc(CNC(=O)Nc3ccc(S(=O)(=O)F)cc3)cc2)n1 ?
a: inactive

q: Hello, I am checking results. What call was entered for O=[N+]([O-])/C=C/c1ccccc1 ?
a: active

q: Hello, I am checking results. What call was entered for CC1(Cl)CC(C)(/C=C/Cl)C(Cl)CC1Cl (stereo unspecified) ?
a: inactive
